Target Of Assay: T1, PCSK9Δhelix (human PCSK9 lacking the P' helix, His-tagged) (human, UniProt Q8NBP7 31-152; Q8NBP7 168-692)
T1 construct: Construct M1-Q692 with an engineered TEV site (Y166 and R167 deleted, ENLYFQS inserted between R165 and A168); also called His-PCSK9Δhelix; C-terminal (His)8-tagged PCSK9Δhelix
T1 sequence (Q8NBP7 31-152, stated change not applied, chain 1 of 2): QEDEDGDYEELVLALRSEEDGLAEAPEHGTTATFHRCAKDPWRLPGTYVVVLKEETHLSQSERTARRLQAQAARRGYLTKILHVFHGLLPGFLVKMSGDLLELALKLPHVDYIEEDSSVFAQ
T1 sequence (Q8NBP7 other isoform, or with tags, fused parts or gaps mutant, chain 2 of 2): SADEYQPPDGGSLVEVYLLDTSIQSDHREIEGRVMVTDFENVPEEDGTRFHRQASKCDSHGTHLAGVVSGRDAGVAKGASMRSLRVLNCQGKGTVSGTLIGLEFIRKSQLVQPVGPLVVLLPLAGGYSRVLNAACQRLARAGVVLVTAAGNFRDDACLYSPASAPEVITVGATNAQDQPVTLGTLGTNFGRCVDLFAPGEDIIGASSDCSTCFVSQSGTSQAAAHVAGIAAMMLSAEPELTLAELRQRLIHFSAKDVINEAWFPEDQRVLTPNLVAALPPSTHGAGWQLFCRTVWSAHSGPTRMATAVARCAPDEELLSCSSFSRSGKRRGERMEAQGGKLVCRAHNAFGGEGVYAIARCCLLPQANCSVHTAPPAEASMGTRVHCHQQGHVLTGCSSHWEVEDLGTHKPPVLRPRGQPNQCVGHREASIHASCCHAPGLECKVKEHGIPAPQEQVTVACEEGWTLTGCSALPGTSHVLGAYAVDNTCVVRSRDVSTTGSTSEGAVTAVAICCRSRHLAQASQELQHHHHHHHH
Method Notes: TR-FRET competition; His-PCSK9Δhelix with Ab20 as competitor ligand
Bridge positions count the residues as written; N and C are the ends. Square brackets hold non-standard residues; d marks the D form. Primed or numbered codes have the meaning given here. Hyp′ = 3-hydroxyproline

{"columns": ["Binder", "IC50 (µM)"],
 "data": [
  ["Ac-SGCFI[Hyp′]WNLQRIGLLC-NH2 (disulfide 3-16 (inferred), Has two Cys (positions 3 and 16)) [Compound 242: Ac-SG-CFI(Hyp)WNLQRIGLLC-NH2]", 31]
]}

These data points were gathered from patent US20200283478A1.
